- Tested on: UO-31
- assay_method_text: NCI tumour cell line growth inhibition, 48 h
Active and inactive are the calls of the source. No stated cut-off is given here; in the data, active = GI50 up to about 1.1 µM and inactive = higher.
measure_name: GI50

> print(dat)
                                   molecule  measure.name  experimental.value
1  CC1=C(C(=S)Nc2ccc(Cl)c(C(=O)OC(C)C)c2)SCCO1          GI50  14.9 µM (inactive)
2  CCc1cccc(C)c1NC(=O)C1=C(C)NC(C)=C(C(=O)Nc2c(C)cccc2CC)C1c1ccc2c(c1)OCO2          GI50  15.3 µM (inactive)
3  N#Cc1c2c(c(-c3cccs3)n(C3OC(CO)C(O)C(O)C3O)c1=S)CCc1ccccc1-2 (stereo not given)          GI50  3.04 µM (inactive)
4  CS(=O)(=O)N(N(CCCl)S(=O)(=O)c1ccccc1)S(C)(=O)=O          GI50  76.7 µM (inactive)

Switching to the query record.
# return recorded GI50 for input CN(C(=O)C12C3C4C1C1C2C3C41C(=O)O)C(C)(C)C (stereo not given)
> 100 µM (inactive)

---

- Test system: SR
- assay_method_text: NCI tumour cell line growth inhibition, 48 h
Calls of active or inactive are those of the source. Cut-off read from the data, not from the text of the source: active = GI50 up to about 1.1 µM and inactive = higher.
Assign a class; possible classes are active, inactive

Below, 5 molecules whose answers are already recorded.
> print(dat)
                                   molecule  class.name
1  Cc1c2c(cc3c1C(=O)C(=O)C1=C3OC[C@@H]1C)C(C)(C)CCC2    inactive
2  NC(=O)c1csc(C2(O)COC(CO)C2O)n1 (configuration not stated)    inactive
3  CC(O)(CCCCCl)c1nc2ccccc2s1 (configuration not stated)    inactive
4  CC(C)C1=C(Cc2ccccc2)C(=O)O/C1=C\c1cc(Cl)c(O)c(Cl)c1    inactive
5                  O=c1ssc2c1Nc1c(ssc1=O)S2    inactive

What did this assay record as the result for COc1ccc2oc(=N)c(C(=O)Nc3ccccc3)cc2c1 ?
inactive

What did this assay record as the result for Cc1cc(C)nc(NS(=O)(=O)c2ccc(NC(=O)c3cccc4c(Nc5ccc(S(=O)(=O)N=C(N)N)cc5)c5ccc(Cl)cc5nc34)cc2)n1 ?
inactive

What did this assay record as the result for COc1ccccc1C[C@@H]1OC2(C=CC(=O)CC2SC(=O)c2ccccc2)O[C@H]1Cc1ccccc1OC (some centres not stated) ?
active

What did this assay record as the result for Cc1cccc(C(C)(C)C)c1NC(=O)CC1C(=O)Nc2ccccc2S1(=O)=O (configuration not stated) ?
inactive

What did this assay record as the result for CC(=O)OC[C@H]1On2nnnc2[C@H](OC(C)=O)[C@@H](OC(C)=O)[C@@H]1OC(C)=O ?
inactive

What did this assay record as the result for CN1C2CC(=O)CC1[C@@H]1OC(c3ccccc3)O[C@H]21 (some centres not stated) ?
inactive

What did this assay record as the result for C[C@H](CCC(=O)NN)[C@H]1CC[C@H]2[C@@H]3CC[C@@H]4C[C@H](O)CC[C@]4(C)[C@H]3CC[C@]12C ?
inactive

---

Measured GI50 values are reported for all entries that follow.
- Test system: RXF 393
- assay_method_text: NCI tumour cell line growth inhibition, 48 h
The source made the active and inactive calls. Cut-off read from the data, not from the text of the source: active = GI50 up to about 1.1 µM and inactive = higher.

> print(dat)
                                    compound  measure.name   experimental.value
 1  Cc1cccc(C(C)(C)C)c1NC(=O)CC1C(=O)Nc2ccccc2S1(=O)=O (stereo not given)          GI50   13.4 µM (inactive)
 2  CC(C)(C)C(=O)CC1(O)C=C(O)C(O)(CC(=O)C(C)(C)C)O1 (stereo not given)          GI50   1.84 µM (inactive)
 3  CC(=O)OCC1OC(n2c(N)c(C#N)c(-c3ccc(C)cc3)c(C#N)c2=S)C(OC(C)=O)C(OC(C)=O)C1OC(C)=O (stereo not given)          GI50   18.7 µM (inactive)
 4  CN(C)c1ccc(/C=C(\NC(=O)c2ccccc2)C2NC(Cc3c[nH]c4ccccc34)C(=O)O2)cc1 (stereo not given)          GI50   > 91 µM (inactive)
 5  COc1cc([C@@H]2c3cc4c(cc3[C@@H](OC3OC5COC(C)OC5C(O)C3O)[C@H]3COC(=O)[C@H]23)OCO4)cc(OC)c1O (stereo not given in full)          GI50   14.9 µM (inactive)
 6  CCCCNC1CCCCC[C@H]1O (stereo not given in full)          GI50  > 100 µM (inactive)
 7    C/C(CC(O)(C(F)(F)F)C(F)(F)F)=N\NC(N)=S          GI50   > 10 µM (inactive)
 8  OC(c1cccs1)c1cc2ccccc2s1 (stereo not given)          GI50   > 10 µM (inactive)
 9  N#Cc1c(-c2ccc(Cl)cc2)cc(-c2ccc(Nc3ccnc4cc(C(F)(F)F)ccc34)cc2)nc1N          GI50   22.1 µM (inactive)
10  COc1ccc2c(-c3csc(-c4c[nH]c5ccccc45)n3)c[nH]c2c1          GI50   5.01 µM (inactive)

# return recorded GI50 for input COC(=O)C(C(=O)C(=O)Nc1ccc(N)cc1[N+](=O)[O-])c1nc2ccc(Cl)cc2nc1O (stereo not given)
60.7 µM (inactive)

# return recorded GI50 for input O=C(CC1Sc2ccccc2NC1=O)Nc1cc(Cl)ccc1Cl (stereo not given)
> 100 µM (inactive)

# return recorded GI50 for input CCOC(=O)c1nn2c(nc1=O)sc1ccc3ccccc3c12
> 100 µM (inactive)

# return recorded GI50 for input CCCCCCCCC#CCCCCCCC(F)C(=O)O (stereo not given)
> 100 µM (inactive)

# return recorded GI50 for input CCN(CC)c1ccc2c(c1)Nc1cc(=C(C#N)C#N)c3ccccc3c1=N2
> 100 µM (inactive)

# return recorded GI50 for input COC(=O)[C@H]1COC(=S)N1C(=O)[C@@H](C)[C@H](O)C(C)C
> 100 µM (inactive)

# return recorded GI50 for input O=C(c1cc2c(C(F)(F)F)onc2c2ccccc12)C(F)(F)F
4.3 µM (inactive)

# return recorded GI50 for input CCOc1ccc(N/C(=C(/C(Cl)=C(/Cl)N(CC)CC)[N+](=O)[O-])n2nnc3ccccc32)cc1
14.4 µM (inactive)

# return recorded GI50 for input CCOC(=O)c1cc(C2(O)CCN(Cc3ccccc3)C2=O)c(-c2cc(C)no2)[nH]1 (stereo not given)
13.3 µM (inactive)

# return recorded GI50 for input COC(=O)/C=C(\CC(=O)OC)n1nnnc1[C@@H]1C[C@H](COC(c2ccccc2)(c2ccccc2)c2ccccc2)[C@H]2OC(C)(C)O[C@H]21
42.1 µM (inactive)

---

- System: SR
- assay_method_text: NCI tumour cell line growth inhibition, 48 h
The source made the active and inactive calls. Rule as the data show it: active = GI50 up to about 1.1 µM and inactive = higher. Peptide text beside a SMILES is read from it. * marks the point of attachment. X27 = Clc1c(Cl)c(Cl)c(O*)c(Cl)c1Cl; Boc = CC(C)(C)OC(=O)*; OBn = c1ccc(CO*)cc1; Bn = c1ccc(C*)cc1
measure_name: GI50

For orientation, consider the following solved cases.
molecule	tgt	GI50
Cc1ccc([N+](=O)[O-])c2c(NCCCN(C)C)ccnc12	SR	66.4 µM (inactive)
CC(C)CC(NC(=O)C(CCC(=O)OCc1ccccc1)NC(=O)OC(C)(C)C)C(=O)NC(COCc1ccccc1)C(=O)NC(Cc1ccccc1)C(=O)Oc1c(Cl)c(Cl)c(Cl)c(Cl)c1Cl (centres undefined) (Boc-E(OBn)LS(Bn)F-X27; configuration not given here)	SR	29.2 µM (inactive)

# return recorded GI50 for input COCOC1/C=C/CCCCC(=O)C(C)C#CC1 (centres undefined)
2.74 µM (inactive)

# return recorded GI50 for input Cc1[nH]c2ccccc2c1C1Cc2ccccc2N1C(=O)C#Cc1ccc([N+](=O)[O-])cc1 (centres undefined)
8 µM (inactive)

---

- Test system: CAKI-1
- assay_method_text: NCI tumour cell line growth inhibition, 48 h
Calls of active or inactive are those of the source. Cut-off read from the data, not from the text of the source: active = GI50 up to about 1.1 µM and inactive = higher.
measure_name: GI50

> print(dat)
                                   compound    experimental.value
1  COc1ccc(C2SCC(=O)N2NC(=O)C(C)Oc2ccc(Cl)cc2Cl)cc1 (stereo not given)    21.8 µM (inactive)
2  Cc1ccc([N+](=O)[O-])c2c(NCCCN(C)C)ccnc12  > 89.5 µM (inactive)
3  ClCCNCCNCCCl.ClCCNCCNCCCl.[O-][Cl+3]([O-])([O-])O    19.1 µM (inactive)

# return recorded GI50 for input COc1ccc2c(c1)CN1CCc3c(cc(OC)c(OC)c3OC)C1C2 (stereo not given)
> 100 µM (inactive)

# return recorded GI50 for input COc1ccc(/C(=N/O)c2ccccc2-c2nc3ccccc3c(=O)n2-c2ccc(S(=O)(=O)Nc3ncccn3)cc2)cc1C
21.1 µM (inactive)

# return recorded GI50 for input Cc1cc2c(cc1-c1cc3c(cc1C)C(C(C)C)=C(O)C(=O)/C3=C\Nc1ccccn1)/C(=C/Nc1ccccn1)C(=O)C(O)=C2C(C)C
45.8 µM (inactive)

# return recorded GI50 for input O=C(c1cc2c(C(F)(F)F)onc2c2ccccc12)C(F)(F)F
2.78 µM (inactive)
